// data source = PubChem BioAssay (Tox21)

# targetOrSystem: Nuclear receptor subfamily 1 group I member 2 (Rattus norvegicus)
# assayNotes: Rat pregnane X receptor (rPXR) activation by small molecules, qHTS assay (AID 1346983); also: % is scaled to controls: 0 for no effect and ±100 for the full control effect; nearly all actives have a fitted effect of over 20% in size
# conditionsUsed: rPXR luciferase reporter cells, One-Glo luminescence, 24 h; hits give high values
Records with an inconclusive call do not appear.
# key: entry, value: max activation
metricName: max activation (%)

>  <compound>
C=CCNC1=C2C[C@@H](C)C[C@H](OC)[C@H](O)[C@@H](C)/C=C(\C)[C@H](OC(N)=O)[C@@H](OC)/C=C\C=C(/C)C(=O)NC(=CC1=O)C2=O

>  <metricName>
max activation

>  <reported>
-14.2

$$$$
>  <compound>
C[C@@H]1CCC2[C@@H](C)[C@@H](O)O[C@@H]3O[C@@]4(C)CC[C@@H]1[C@@]23OO4 (stereo partly drawn)

>  <metricName>
max activation

>  <reported>
-10.7

$$$$
>  <compound>
COc1ccc(C[C@@H](C)NC[C@H](O)c2ccc(O)c(NC=O)c2)cc1

>  <metricName>
max activation

>  <reported>
-1.9

$$$$
>  <compound>
CC(C)N=c1cc2n(-c3ccc(Cl)cc3)c3ccccc3nc-2cc1Nc1ccc(Cl)cc1

>  <metricName>
max activation

>  <reported>
-3.58

$$$$
>  <compound>
CCCOc1cc(N)ccc1C(=O)OCCN(CC)CC

>  <metricName>
max activation

>  <reported>
2.87

$$$$
>  <compound>
CC(C)(CO)[C@@H](O)C(=O)NCCC(=O)NCCSSCCNC(=O)CCNC(=O)[C@H](O)C(C)(C)CO

>  <metricName>
max activation

>  <reported>
-1.96

$$$$
>  <compound>
N#CC(c1ccc(Cl)cc1)c1c(Cl)cc(-n2ncc(=O)[nH]c2=O)cc1Cl (stereo not drawn)

>  <metricName>
max activation

>  <reported>
12.6

$$$$
>  <compound>
CCCCCCCCCCCCCCCCOCCOCCOCCOCCOCCOCCOCCOCCOCCOCCOCCOCCOCCOCCOCCOCCOCCOCCOCCOCCO

>  <metricName>
max activation

>  <reported>
-15.6

$$$$
